system: OVCAR-4; assay: NCI tumour cell line growth inhibition, 48 h
The source made the active and inactive calls. Rule as the data show it: active = GI50 up to about 1.1 µM and inactive = higher. Non-standard residues stand in square brackets, D forms with d. Residues, ends and D or L forms follow the SMILES beside them.
observable: GI50

{"columns": ["compound", "GI50"],
 "data": [
  ["C=CCCCC1SC2=C(CC)CCCN2C1=O (centres undefined)", "65.6 µM (inactive)"],
  ["CCOc1cc(NC(C)=O)ccc1C(=O)NN1C(=O)/C(=C/c2cc(OC)c(OC)c(OC)c2)N=C1c1ccccc1", "> 100 µM (inactive)"],
  ["CC(=O)c1c(-c2cccc3ccccc23)c(C#N)c(=S)n(C2OC(CO)C(O)C(O)C2O)c1C (centres undefined)", "> 100 µM (inactive)"]
]}

Entry CC(C)C[C@H](NC(=O)[C@H](CC(C)C)NC(=O)[C@@H](Cc1c[nH]c2ccccc12)NC(=O)[C@H](Cc1ccccc1)NC(=O)[C@@H](Cc1c[nH]c2ccccc12)NC(=O)[C@H](CCC(N)=O)NC(=O)[C@H](CCC(N)=O)NC(=O)[C@H]1CCCN1C(=O)[C@@H](N)CCCCN)C(N)=O (H-K[dP]QQ[dW]F[dW]LL-NH2) : GI50 on OVCAR-4 = > 100 µM (inactive)

====

system: HOP-18; test: NCI tumour cell line growth inhibition, 48 h
The source made the active and inactive calls. Cut-off read from the data, not from the text of the source: active = GI50 up to about 1.1 µM and inactive = higher.
Each item that follows carries a reported GI50.

{"columns": ["compound", "GI50"],
 "data": [
  ["COc1cc([C@@H]2c3cc4c(cc3[C@@H](NC(=O)c3ccc(C(C)=O)cc3)C3COC(=O)[C@@H]32)OCO4)cc(OC)c1O (stereo partly drawn)", "> 100 µM (inactive)"],
  ["COc1cc2nncc(SCc3ccc(Cl)c(Cl)c3)c2cc1OC", "> 100 µM (inactive)"],
  ["CN(/N=C/c1cccc2cccnc12)c1ccccc1", "> 100 µM (inactive)"]
]}

GI50 measured on CCNC(C)Cc1ccccc1 (stereo not drawn) = > 100 µM (inactive)

So for NC(CNc1ccc(O)cc1)C(=O)O (stereo not drawn) , the logged GI50 turned out to be > 100 µM (inactive)

According to the records, this compound O=C(CCC(=O)C1CCC/C1=N/O)Nc1ccc(Cl)cc1 (stereo not drawn) displays GI50 of > 100 µM (inactive)

// field: GI50; key: CC(=O)N/C=C/c1cc(O)ccc1O ; value = 16.4 µM (inactive)

====

tested on: HT-29; experiment: NCI tumour cell line growth inhibition, 48 h
Active and inactive are the calls of the source. No stated cut-off is given here; in the data, active = GI50 up to about 1.1 µM and inactive = higher.
observable: GI50

Consider the following illustrative entries.
{"columns": ["compound", "target.or.system", "assay.result"],
 "data": [
  ["CC1(C)CC2=C(Sc3ccccc3N2)C(=O)C1C(=O)C(=O)Nc1cccc([N+](=O)[O-])c1 (stereo not given)", "HT-29", "> 100 µM (inactive)"],
  ["C[Si](C)(C)/C(Br)=C\\CCN1C(=O)CCC1O (stereo not given)", "HT-29", "> 100 µM (inactive)"],
  ["CCCCN1C(=O)CS/C1=N/Nc1nc2c([nH]1)c(=O)n(C)c(=O)n2C", "HT-29", "23.9 µM (inactive)"],
  ["Cn1c(=O)c2c(ncn2CN2CCN(Cn3cnc4c3c(=O)n(C)c(=O)n4C)CC2)n(C)c1=O", "HT-29", "26.2 µM (inactive)"]
]}

The compound COc1ccc2c(c1)CC[C@@H]1C2CC[C@](C)(C#N)C1CC#N (stereo not given in full) showed GI50 equal to > 100 µM (inactive)

Record summary for C=C1C/C(=C/C)C(=O)O[C@@H]2CCN3CC=C(COC(=O)[C@]1(C)O)[C@H]23 [SENECIPHYLLINE] : reported GI50 = > 100 µM (inactive)

So for Nc1ncnc2c1ccn2COC(CO)CO , the logged GI50 turned out to be > 100 µM (inactive)

Data point: COc1cc([N+](=O)[O-])c(S(=O)(=O)O)cc1-n1nc(-c2ccccc2)n[n+]1-c1cc(S(=O)(=O)[O-])c([N+](=O)[O-])cc1OC ; GI50 = > 100 µM (inactive)

The values you see were collected from ChEMBL document CHEMBL1201862.
